- Experimental target: Mu-type opioid receptor (Rattus norvegicus, UniProt P33535)
- Sequence (P33535 whole entry): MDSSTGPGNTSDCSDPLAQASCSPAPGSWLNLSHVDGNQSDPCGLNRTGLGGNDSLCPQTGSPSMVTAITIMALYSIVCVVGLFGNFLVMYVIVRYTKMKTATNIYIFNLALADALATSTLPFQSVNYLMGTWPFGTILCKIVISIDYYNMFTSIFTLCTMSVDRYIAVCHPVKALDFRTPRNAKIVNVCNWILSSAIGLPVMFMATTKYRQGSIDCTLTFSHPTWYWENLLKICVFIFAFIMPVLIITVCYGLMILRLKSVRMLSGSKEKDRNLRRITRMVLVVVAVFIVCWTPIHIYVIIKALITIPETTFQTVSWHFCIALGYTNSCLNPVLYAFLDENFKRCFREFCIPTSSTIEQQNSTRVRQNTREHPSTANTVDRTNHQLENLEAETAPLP
- Assay procedure: Concentration required for 50% inhibition of [3H]DAGO binding to mu opioid receptor in crude rat brain homogenates
- Format: tissue-based
Rule: IC50 below 200 nM gives Criterion met. Equal to or above 200 nM gives Criterion not met.

Hello, is IC50 of the following substance strictly smaller than 200 nM? `H-YGGFLI-NH2`
Criterion met

Criterion: IC50 strictly below 200 nM. Is it met by `H-YGGFMA-NH2` ?
Criterion met

# strict comparison: is reported IC50 < 200 nM? input = `H-YGGFLE-NH2`
Criterion not met

Find out if reported IC50 for `H-YGGFLR-NH2` is less than 200 nM
Criterion met

# check: IC50 < 200 nM for `H-YGGFLT-NH2`
Criterion met

Determine whether this substance shows IC50 lower than 200 nM (ties excluded): `H-YGGFLQ-NH2`
Criterion met

Item `H-YGGFMG-NH2` : IC50 beneath 200 nM, strictly?
Criterion met

Answer whether the substance `H-YGGFMY-NH2` has IC50 strictly less than 200 nM
Criterion met

Hello, is IC50 of the following substance strictly smaller than 200 nM? `H-YGGFLF-NH2`
Criterion not met

Here's an entry: `H-YGGFLV-NH2` . Is its IC50 below 200 nM?
Criterion met
